Origin of values: PubChem BioAssay

molecular target: Nuclear receptor coactivator 2 (Homo sapiens); assay: SRC2 coactivator transcriptional activity inhibitors, confirmation, cell-based, luminescence, HEK293, triplicate (AID 652008); settings: HEK293 GAL4-SRC2 luciferase reporter, at 8.9 µM;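 note: 0% = DMSO-treated cells and 100% = Gossypol at 36 µM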
Active and inactive are the calls of the source.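 Rule for the calls: active = mean inhibition above 46.5%, the solvent-only control mean plus 3 SD; inactive = the rest.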
Use one of these outcomes when replying: active, inactive

## Task What call does the record list for c1nnc2c3c4c(sc3ncn12)CCC4 ?
## Result inactive

## Task What is the recorded call for this molecule in the test? O=C(CCl)N1N=C(c2ccco2)CC1c1ccco1 (stereo not given)
## Result active

## Task Recorded test outcome, item COC(=O)c1ccc2c(=O)[nH]c(COC(=O)c3[nH]c(C)c(C(C)=O)c3C)nc2c1
## Result inactive

## Task Could you check what this test reported for CCOc1cc(/C=C2/NC(=O)N(Cc3ccccc3F)C2=O)ccc1O ?
## Result inactive

## Task I'd appreciate the recorded outcome for O=C(Nc1ccc2c(c1)OCCO2)C(c1cc2ccccc2o1)N1CCN(c2ccc(F)cc2)CC1 (stereo not given) from this test.
## Result inactive

## Task Please indicate how the test categorized Cc1cc(C)n(CCC(=O)N/N=C/c2c(O)ccc3ccccc23)n1 .
## Result inactive

## Task Tell me the assay call for CCCc1ccc(-c2ccc(/C=C/C(=O)O)cc2)nc1 please.
## Result active

## Task Hi, sorry to bother you, what did the test record for CCNC(=O)NC(=O)COC(=O)CCCSc1nc2ccccc2s1 ?
## Result inactive

## Task What classification did CCC(C(=O)NCc1ccc(F)cc1)n1nc(C)n2c(cc3occc32)c1=O (stereo not given) end up with in this test?
## Result inactive

----------
biological target: Steroidogenic factor 1 (Homo sapiens) (UniProt Q13285); test: SF1 (NR5A1) inverse agonists, counter-screen for LRH-1 inverse agonist project, cell-based, luminescence, high throughput (AID 651614); details: cell-based SF1 luciferase reporter, at 3.6 µM, stronger effect = higher value;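 note: cells cotransfected with StAR promoter reporter and SF1 expression vector; 0% = vehicle on cells with receptor and 100% = vehicle on cells lacking receptor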
Sequence (Q13285 whole entry, looked up): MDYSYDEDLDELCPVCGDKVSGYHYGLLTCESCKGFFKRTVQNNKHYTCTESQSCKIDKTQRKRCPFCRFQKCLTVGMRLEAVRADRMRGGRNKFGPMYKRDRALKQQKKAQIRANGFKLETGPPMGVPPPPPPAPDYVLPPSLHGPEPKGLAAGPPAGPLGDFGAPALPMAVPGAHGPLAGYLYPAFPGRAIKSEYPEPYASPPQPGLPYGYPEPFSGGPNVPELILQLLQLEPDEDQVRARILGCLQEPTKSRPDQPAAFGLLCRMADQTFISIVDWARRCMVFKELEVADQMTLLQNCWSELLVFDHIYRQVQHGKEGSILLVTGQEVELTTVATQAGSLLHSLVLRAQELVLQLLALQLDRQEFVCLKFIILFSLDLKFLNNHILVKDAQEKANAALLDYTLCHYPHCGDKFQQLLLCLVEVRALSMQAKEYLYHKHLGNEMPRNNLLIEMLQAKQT
Parameter: inhibition. Scope: all listed entries.
Express your answer in %, writing the number without its unit.

compound | measuredTarget | inhibition, %
O=C(c1ccccc1)c1cc(-c2ccccn2)c(N2CCOCC2)s1 | Steroidogenic factor 1 (Homo sapiens) (UniProt Q13285) | 63.4
COc1ccc(OC)c(-n2c(-c3ccc(S(C)(=O)=O)cc3)cc(C=O)c2C)c1 | Steroidogenic factor 1 (Homo sapiens) (UniProt Q13285) | 55.3
Cc1nc2cc(NCc3nc4ccccc4n3Cc3ccccc3)ccc2n1C | Steroidogenic factor 1 (Homo sapiens) (UniProt Q13285) | -209
Oc1[nH]c2ccccc2c1N=NC(=S)N1CCOCC1 | Steroidogenic factor 1 (Homo sapiens) (UniProt Q13285) | 80
COc1ccc(O)c(/C=N/Nc2nc(Nc3ccccc3)nc(-n3nc(C)cc3C)n2)c1 | Steroidogenic factor 1 (Homo sapiens) (UniProt Q13285) | -41.8

## Task Supply recorded inhibition for COc1cccc(/C=N/NC(=O)c2c(C)nc3ccc(Cl)cn23)c1O here.
## Result 88.4

## Task For the compound Cc1nnsc1S(=O)c1ccc(Cl)c(Cl)c1 (stereo not given) , give its measured inhibition value.
## Result 66.4

## Task Let me know recorded inhibition for C[n+]1c2n(c3ccccc31)N=C(c1ccc(-c3ccccc3)cc1)CS2 , thanks.
## Result 78.2

## Task Identify measured inhibition corresponding to COc1ccc(-n2c(SCC(=O)NCc3ccco3)nc3sc4c(c3c2=O)CCN(C)C4)cc1
## Result 11

----------
system: transactivating tegument protein VP16 (Human herpesvirus 1); assay: VP16 transactivation reporter inhibitors, counter-screen for SRC2 inhibitor project, cell-based, luminescence, single concentration (AID 652007); conditions: cell-based VP16 transactivation luciferase reporter, at 8.9 µM
The source made the active and inactive calls. Cut-off read from the data, not from the text of the source: active = inhibition above about 36%; inactive = the rest.
Bench note: report the call from YES = active, NO = inactive

Recorded results for 4 molecules are shown here.
molecule | measuredTarget | group
O=C(NC1CCCCC1)C(c1cccnc1)N(C(=O)CCl)c1ccccc1Cl (stereo unspecified) | transactivating tegument protein VP16 (Human herpesvirus 1) | YES
CC1CCN(C2=NC(=O)/C(=C/c3ccccc3F)S2)CC1 | transactivating tegument protein VP16 (Human herpesvirus 1) | NO
COCCNC(=O)/C(C#N)=C/c1cc(C(C)C)c(OC)cc1C | transactivating tegument protein VP16 (Human herpesvirus 1) | NO
O=c1[nH]nc(Sc2ncnc3sccc23)n1CCc1ccccc1 | transactivating tegument protein VP16 (Human herpesvirus 1) | NO

## Task Check the results log: what was the call for Cc1cc(Sc2nnc(N)s2)c2ccccc2n1 ?
## Result NO

## Task // param item: O=C(CC(Nc1ccc(Cl)cc1Cl)C(=O)O)c1ccccc1 (stereo unspecified) ; yields the recorded call
## Result NO

## Task Kindly provide the recorded test outcome for the following molecule: CCCNC(=O)C[C@H]1C[C@H]2c3cc(NC(=O)Nc4ccc(F)cc4)ccc3O[C@H]2[C@@H](CO)O1
## Result NO

## Task Called result for COc1ccc([N+](=O)[O-])c(S(=O)(=O)c2ccc(Cl)cc2)n1
## Result NO

## Task Assay outcome for C/C(=N\NC(N)=S)C12CC3CC(CC(C3)C1)C2 : what was it?
## Result NO

## Task Write down the call the test reported for this molecule. Item: CC1CCC(C(C)C)C(OCC(O)CN2CCCC(C)C2)C1 (stereo unspecified)
## Result NO

## Task For CCCNC1=C(N(C(C)=O)c2cccc(F)c2)C(=O)c2ccccc2C1=O , what call appears in the results of this test?
## Result NO

----------
assay: StAR promoter reporter inhibitors, counter-screen for LRH-1 inverse agonist project, cell-based, luminescence, high throughput (AID 651611); conditions: StAR promoter luciferase reporter counterscreen, at 3.6 µM
Active and inactive are the calls of the source. Rule as the data show it: active = inhibition above about 28%; inactive = the rest.
Pick from true for active, false for inactive when you respond.

Examples from the recorded data:
compound | group
Cc1ccc(/C=C2\SC(=S)N(c3c(C)n(C)n(-c4ccccc4)c3=O)C2=O)cc1 | false
O=S(=O)(NCC1CCCO1)c1ccc(-c2ccc(S(=O)(=O)NCC3CCCO3)cc2)cc1 (stereo not given) | false
COc1cc(NC(=O)CN2C(=O)NC(c3ccccc3)(c3ccccc3)C2=O)c(C)cc1[N+](=O)[O-] | false
CCC(NC(=O)c1cc(COc2cc(C)c(Cl)c(C)c2)on1)c1ccncc1 (stereo not given) | false
CC(=O)N1CCc2c(sc(NC(=O)c3ccc([N+](=O)[O-])o3)c2C#N)C1 | false
Clc1ccc(C2=Nn3c(nnc3-c3n[nH]c4c3CCC4)SC2)cc1 | true
O=C(CCl)N(c1ccc(Cl)cc1)c1c[nH]c2ccccc12 | false
Cc1ccc(/C=C2/SC(=S)N(CCCC(=O)Nc3ccc(O)cc3)C2=O)cc1 | true

## Task Which outcome was assigned to O=C(Nc1cccnc1)c1ccc([N+](=O)[O-])s1 in this test?
## Result false

## Task What call does the record list for CCCc1cc(NCCOCCO)n2c(nc3ccccc32)c1C#N ?
## Result false

----------
test: VP16 transactivation reporter inhibitors, counter-screen for LRH-1 inverse agonist project, cell-based, luminescence, high throughput (AID 651615); details: Gal4-VP16 luciferase reporter cells, at 3.6 µM, stronger effect = higher value
Listing of recorded inhibition by entry.
All answers are understood in %, so give the number only.

Example entries begin here.
testSmiles | unitOfMeasure | observedValue
Cc1cc(OCC(=O)Nc2cccnc2)c2c(C)c(C)c(=O)oc2c1 | % | -34.7
CCCCCCCCn1c2c(c(=N)c3ccccc31)CCC2 | % | 92.1
COc1ccc(NC(=O)COC(=O)c2cc(S(=O)(=O)N3CCCC3)ccc2O)cc1 | % | 0.43

// next entry
## Task Supply inhibition value. Item: COc1cc(NC(=O)CN2C(=O)NC(c3ccccc3)(c3ccccc3)C2=O)c(C)cc1[N+](=O)[O-]
## Result 9.47

----------
target: Nuclear receptor coactivator 1 (Homo sapiens) (UniProt Q15788); assay: SRC1 coactivator transcriptional activity inhibitors, confirmation, cell-based, luminescence, quadruplicate (AID 588820); conditions: HEK293 GAL4-SRC1 luciferase reporter, at 3.6 µM, stronger effect = higher value;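 note: 0% = DMSO wells and 100% = gossypol 36 µM treated wells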
Sequence (Q15788 whole entry, looked up, the tested form may be a part): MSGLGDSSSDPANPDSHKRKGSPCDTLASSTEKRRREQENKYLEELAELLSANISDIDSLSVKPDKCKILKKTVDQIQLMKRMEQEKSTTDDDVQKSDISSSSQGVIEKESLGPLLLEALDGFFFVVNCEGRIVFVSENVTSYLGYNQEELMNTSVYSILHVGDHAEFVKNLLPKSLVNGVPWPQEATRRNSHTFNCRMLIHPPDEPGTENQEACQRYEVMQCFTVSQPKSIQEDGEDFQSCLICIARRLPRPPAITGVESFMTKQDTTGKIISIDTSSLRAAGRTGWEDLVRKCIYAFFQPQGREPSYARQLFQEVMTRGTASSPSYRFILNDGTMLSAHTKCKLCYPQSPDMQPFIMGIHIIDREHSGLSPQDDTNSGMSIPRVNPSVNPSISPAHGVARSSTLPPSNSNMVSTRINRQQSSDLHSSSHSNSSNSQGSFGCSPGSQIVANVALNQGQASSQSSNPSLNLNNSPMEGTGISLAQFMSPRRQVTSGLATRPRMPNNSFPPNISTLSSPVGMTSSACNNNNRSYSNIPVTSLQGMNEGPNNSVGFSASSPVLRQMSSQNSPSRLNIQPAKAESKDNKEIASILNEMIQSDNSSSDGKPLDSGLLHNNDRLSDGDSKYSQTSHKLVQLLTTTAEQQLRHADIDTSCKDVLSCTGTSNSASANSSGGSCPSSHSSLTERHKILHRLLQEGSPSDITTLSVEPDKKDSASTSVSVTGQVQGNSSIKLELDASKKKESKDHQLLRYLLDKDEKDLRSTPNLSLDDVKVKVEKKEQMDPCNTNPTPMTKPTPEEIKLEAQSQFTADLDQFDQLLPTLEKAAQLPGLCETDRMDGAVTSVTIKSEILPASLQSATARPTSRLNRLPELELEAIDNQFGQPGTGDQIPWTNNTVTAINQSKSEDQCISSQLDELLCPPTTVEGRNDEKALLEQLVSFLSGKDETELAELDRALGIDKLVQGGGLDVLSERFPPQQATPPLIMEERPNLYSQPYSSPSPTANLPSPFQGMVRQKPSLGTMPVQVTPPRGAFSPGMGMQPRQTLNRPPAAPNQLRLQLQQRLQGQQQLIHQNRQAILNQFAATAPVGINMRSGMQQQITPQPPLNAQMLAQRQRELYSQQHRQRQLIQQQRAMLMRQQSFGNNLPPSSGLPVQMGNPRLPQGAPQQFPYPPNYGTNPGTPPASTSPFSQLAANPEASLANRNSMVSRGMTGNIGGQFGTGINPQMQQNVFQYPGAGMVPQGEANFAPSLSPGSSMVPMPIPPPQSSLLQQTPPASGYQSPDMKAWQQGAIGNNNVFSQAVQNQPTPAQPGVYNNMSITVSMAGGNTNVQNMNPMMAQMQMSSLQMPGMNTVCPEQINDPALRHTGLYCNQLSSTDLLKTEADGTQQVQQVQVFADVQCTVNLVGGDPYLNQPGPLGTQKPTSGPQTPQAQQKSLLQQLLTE
outcomeMeasure: inhibition (%)
Respond numerically; units are % and should not be typed.

These solved cases illustrate the format of a correct answer.
molecule | inhibition / %
COc1cccc(NC(=O)CSc2nnc(-c3cc(C)n(-c4ccccc4)c3C)o2)c1 | 3.49
O=c1[nH]c(=O)n(C2OC(CO)C(O)C2O)cc1F (stereo not given) | 26.9

## Task Complete the entry with inhibition for CC(Oc1ccccc1F)C(=O)NNC(=O)CC(C)c1ccccc1 (stereo not given)
## Result 12.4

## Task Please indicate inhibition recorded for c1ccc2c(-c3ccc4nncn4c3)cncc2c1
## Result 65.9

## Task // fetch inhibition given entry COc1ccc(-n2cnc3c(sc4nccc(N(C)C)c43)c2=O)cc1
## Result 33.3

----------
assay: Gal4-VP16 luciferase reporter inhibitors, counter-screen for COUP-TFII antagonist project, cell-based, luminescence, HEK293 (AID 687007); conditions: at 8.5 µM, stronger effect = higher value
The list shows a part of the results.
outcomeMeasure: inhibition (%)
Only the number, expressed in %, is required.

Examples from the recorded data:
testSmiles | outcomeMeasure | observedValue
N#C[C@]1(S(=O)(=O)c2ccccc2)C[C@@H]2ON=C(c3cccc(Br)c3)[C@@H]2C1 | inhibition | 2.59
N=C(N)SCc1cccc2ccccc12 | inhibition | 6.09
Cc1ccccc1OCC(=O)Nc1ccc(N2CCN(C(=O)C(C)C)CC2)c(Cl)c1 | inhibition | -4.24

Now examine the next entry.
## Task Identify inhibition associated with the compound CC(C)(C)c1ccc(Oc2ccc(N)cc2)cc1
## Result 91.8
